Test system: human SMAD7 mRNA
experimental protocol: Antisense inhibition of human SMAD7 mRNA expression in Hep3B cells by 3-10-3 cEt gapmers, 10,000 nM, electroporation (Example 2)
Type: cell-based
cond: Hep3B cells, electroporation with 10,000 nM antisense oligonucleotide, approximately 24 hours, primer probe set RTS5062, relative to untreated control cells
Strand notation (5' to 3'): a small letter for the sugar, then the base; units joined by * are phosphorothioate-linked, units joined directly phosphodiester-linked; [ ] holds rarer units or linkages, { } end groups; capitals alone tell only the bases. k = constrained ethyl (cEt); [5mC] = 5-methylcytosine; d = 2'-deoxy (DNA)
The entries below are paired with their reported % inhibition of SMAD7 mRNA expression.
Dear colleague, please return just the value in %, with no unit written.

• 799362 (k[5mC]*kA*kT*d[5mC]*dA*dA*d[5mC]*d[5mC]*dA*dG*dT*d[5mC]*d[5mC]*kT*kA*kT; antisense) [compound 799362] = 39

Request: What is its % inhibition of SMAD7 mRNA expression for human SMAD7 mRNA? Entry: 799127 (antisense kA*kG*kG*dG*dA*d[5mC]*dA*dT*d[5mC]*d[5mC]*d[5mC]*d[5mC]*dG*k[5mC]*kT*kT) [compound 799127]
Response: 67

Request: Field entry: 799361 (kG*kT*k[5mC]*d[5mC]*dT*dA*dT*dT*dT*dG*dG*dT*dT*k[5mC]*k[5mC]*k[5mC]; antisense) [compound 799361]
Response: 77

Request: Field entry: 799151 (antisense kA*kG*k[5mC]*d[5mC]*dT*dA*dG*dG*dA*dT*dG*dG*dT*kA*k[5mC]*k[5mC]) [compound 799151]
Response: 39

Request: Field entry: 799444 (antisense k[5mC]*kA*kT*d[5mC]*dA*dT*dG*d[5mC]*dT*dG*dA*dT*dT*kT*kT*kA) [compound 799444]
Response: 45

Request: Field entry: 799358 (kA*kG*k[5mC]*dA*d[5mC]*dA*dA*dA*dT*dA*d[5mC]*dA*dT*kG*kA*kA; antisense) [compound 799358]
Response: 52

* * *

The entries below are paired with their reported % inhibition of SMAD7 mRNA expression.
Tested on: human SMAD7 mRNA
experimental protocol: Dose-dependent inhibition of human SMAD7 mRNA expression in Hep3B cells (Example 3, Study 1 and 2)
Assay type: cell-based
cond: 2220 nM, electroporation, approximately 16 hours, Study 2
Strand notation (5' to 3'): a small letter for the sugar, then the base; units joined by * are phosphorothioate-linked, units joined directly phosphodiester-linked; [ ] holds rarer units or linkages, { } end groups; capitals alone tell only the bases. k = constrained ethyl (cEt); [5mC] = 5-methylcytosine; d = 2'-deoxy (DNA)
Answer shape: numeric part, then the unit.

• 830168 (antisense kA*kT*kG*d[5mC]*dT*dT*dT*dT*dA*d[5mC]*dA*d[5mC]*dA*k[5mC]*k[5mC]*k[5mC]) [compound 830168] = 46%
• 829995 (kT*kG*kG*dA*dG*dG*d[5mC]*dA*dG*dG*dG*d[5mC]*d[5mC]*kG*k[5mC]*kG; antisense) [compound 829995] = 74%

For the next question, use this substance.
Request: What is its % inhibition of SMAD7 mRNA expression for human SMAD7 mRNA? Entry: 799406 (antisense kG*kG*kG*dA*dA*d[5mC]*dA*dT*dG*dG*d[5mC]*d[5mC]*dT*kT*kT*k[5mC]) [compound 799406]
Response: 51%

* * *

System: human SMAD7 mRNA
experimental protocol: Antisense inhibition of human SMAD7 mRNA expression in Hep3B cells by 3-10-3 cEt gapmers, 10,000 nM, electroporation (Example 2)
Assay type: cell-based
cond: Hep3B cells, electroporation with 10,000 nM antisense oligonucleotide, approximately 24 hours, primer probe set RTS5062, relative to untreated control cells
Strand notation (5' to 3'): a small letter for the sugar, then the base; units joined by * are phosphorothioate-linked, units joined directly phosphodiester-linked; [ ] holds rarer units or linkages, { } end groups; capitals alone tell only the bases. k = constrained ethyl (cEt); [5mC] = 5-methylcytosine; d = 2'-deoxy (DNA)
The entries below are paired with their reported % inhibition of SMAD7 mRNA expression.
Dear colleague, please return just the value in %, with no unit written.

• 798968 (antisense k[5mC]*kG*kA*dT*d[5mC]*dA*dT*dA*d[5mC]*d[5mC]*dT*dG*d[5mC]*k[5mC]*k[5mC]*k[5mC]) [compound 798968] = 62
• 798967 (antisense kT*k[5mC]*kA*dT*dA*d[5mC]*d[5mC]*dT*dG*d[5mC]*d[5mC]*d[5mC]*d[5mC]*kT*kT*k[5mC]) [compound 798967] = 40

Request: Quick one: % inhibition of SMAD7 mRNA expression of 772543 (antisense kG*kG*kA*d[5mC]*dG*dA*dG*d[5mC]*dG*d[5mC]*dA*dG*dA*kT*k[5mC]*kG) [compound 772543] ?
Response: 58

* * *

Tested on: human SMAD7 mRNA
experimental protocol: Dose-dependent inhibition of human SMAD7 mRNA expression in Hep3B cells (Example 3, Study 1 and 2)
Assay type: cell-based
cond: 6670.0 nM, electroporation, approximately 16 hours, Study 2
Strand notation (5' to 3'): a small letter for the sugar, then the base; units joined by * are phosphorothioate-linked, units joined directly phosphodiester-linked; [ ] holds rarer units or linkages, { } end groups; capitals alone tell only the bases. k = constrained ethyl (cEt); [5mC] = 5-methylcytosine; d = 2'-deoxy (DNA)
endpoint name: % inhibition of SMAD7 mRNA expression (%)
Dear colleague, please return just the value in %, with no unit written.

Field: example entries. Status: answers known.
- 799808 (antisense kG*k[5mC]*kT*dG*dA*dA*dA*dG*dA*dA*dA*dG*dT*k[5mC]*k[5mC]*k[5mC]) [compound 799808]: 52
- 799669 (antisense kT*kA*kT*dG*dA*d[5mC]*dA*dG*dA*dT*dG*d[5mC]*d[5mC]*kA*kG*k[5mC]) [compound 799669]: 82
- 799791 (kG*kG*kG*dA*dG*dA*d[5mC]*d[5mC]*dT*dA*d[5mC]*d[5mC]*dT*k[5mC]*kT*kG; antisense) [compound 799791]: 29
- 798931 (antisense kG*kA*kG*dG*dA*dA*dA*dA*dT*dA*dT*dT*dA*kG*k[5mC]*kA) [compound 798931]: 72
- 799759 (antisense kA*k[5mC]*k[5mC]*dA*dT*dA*dT*d[5mC]*dA*d[5mC]*dT*d[5mC]*d[5mC]*kT*kT*k[5mC]) [compound 799759]: 45

For the next question, use this substance.
Request: What is its % inhibition of SMAD7 mRNA expression for human SMAD7 mRNA? Entry: 799143 (antisense kT*kG*kG*dG*dT*dT*dA*dT*dG*dA*d[5mC]*dG*dG*kA*k[5mC]*k[5mC]) [compound 799143]
Response: 95

* * *

Test system: human SMAD7 mRNA
experimental protocol: Dose-dependent inhibition of human SMAD7 mRNA expression in Hep3B cells (Example 3, Study 1 and 2)
Assay type: cell-based
cond: 5000.0 nM, electroporation, approximately 16 hours, Study 1
Strand notation (5' to 3'): a small letter for the sugar, then the base; units joined by * are phosphorothioate-linked, units joined directly phosphodiester-linked; [ ] holds rarer units or linkages, { } end groups; capitals alone tell only the bases. e = 2'-O-(2-methoxyethyl) (MOE); [5mC] = 5-methylcytosine; d = 2'-deoxy (DNA)
# cutoff 10% applies to % inhibition of SMAD7 mRNA expression; >= gives met, < gives not met

Reference set, count: 2
- 771407 (antisense eA*eG*eG*eA*eG*d[5mC]*dG*dA*dA*d[5mC]*dA*dT*dG*dA*d[5mC]*e[5mC]*eT*e[5mC]*e[5mC]*eG) [compound 771407]: met
- 771799 (antisense e[5mC]*eT*eT*e[5mC]*e[5mC]*dA*dA*d[5mC]*dA*d[5mC]*dA*dT*dG*d[5mC]*dT*e[5mC]*eT*eG*e[5mC]*eA) [compound 771799]: met

Request: Say whether 771661 (antisense eA*eA*eT*eG*e[5mC]*dT*dT*d[5mC]*dT*d[5mC]*dT*dT*dG*dT*dT*e[5mC]*eA*eT*eT*eT) [compound 771661] shows % inhibition of SMAD7 mRNA expression of 10% or more.
Response: not met

Request: Field entry: 771797 (antisense eG*e[5mC]*eA*e[5mC]*eA*dG*dA*d[5mC]*dT*dG*d[5mC]*d[5mC]*dA*dA*dA*eT*e[5mC]*eA*e[5mC]*eA) [compound 771797]
Response: met

Request: Field entry: 483663 (antisense e[5mC]*eA*eG*e[5mC]*e[5mC]*dT*d[5mC]*dT*dT*dG*dA*d[5mC]*dT*dT*d[5mC]*e[5mC]*eG*eA*eG*eG) [compound 483663]
Response: met

Request: Field entry: 771441 (e[5mC]*eG*eA*eG*eG*dG*d[5mC]*dG*dG*d[5mC]*dT*dG*d[5mC]*dG*d[5mC]*eA*eG*eG*e[5mC]*eT; antisense) [compound 771441]
Response: met

Request: Field entry: 771715 (antisense eA*eG*eT*e[5mC]*eT*d[5mC]*d[5mC]*dG*dA*dG*dT*dT*dA*dT*d[5mC]*e[5mC]*e[5mC]*e[5mC]*eA*eT) [compound 771715]
Response: met

Request: Field entry: 771509 (antisense eG*eG*e[5mC]*e[5mC]*eT*dG*d[5mC]*dT*d[5mC]*dA*dG*d[5mC]*dT*d[5mC]*dA*e[5mC]*eG*e[5mC]*eT*e[5mC]) [compound 771509]
Response: met

Request: Field entry: 771506 (antisense eG*e[5mC]*eT*e[5mC]*eA*dG*d[5mC]*dT*d[5mC]*dA*d[5mC]*dG*d[5mC]*dT*d[5mC]*eT*eG*eT*e[5mC]*e[5mC]) [compound 771506]
Response: not met

Request: Field entry: 771737 (antisense eT*e[5mC]*eA*eA*eA*dT*dG*dA*dA*d[5mC]*d[5mC]*d[5mC]*dT*dG*dG*eT*eT*eA*eT*eA) [compound 771737]
Response: not met

Request: Field entry: 771815 (antisense e[5mC]*eT*e[5mC]*e[5mC]*e[5mC]*dT*dT*dT*dT*d[5mC]*dA*d[5mC]*dT*dG*d[5mC]*eT*e[5mC]*e[5mC]*eA*e[5mC]) [compound 771815]
Response: met
